src = ChEMBL document CHEMBL4725340

molecular target: Amyloid-beta precursor protein (Homo sapiens) (UniProt P05067); test: Inhibition of copper-induced amyloid beta (1 to 42) (unknown origin) aggregation at 50 uM by thioflavin T based fluorescence assay relative to control
Sequence (P05067 whole entry): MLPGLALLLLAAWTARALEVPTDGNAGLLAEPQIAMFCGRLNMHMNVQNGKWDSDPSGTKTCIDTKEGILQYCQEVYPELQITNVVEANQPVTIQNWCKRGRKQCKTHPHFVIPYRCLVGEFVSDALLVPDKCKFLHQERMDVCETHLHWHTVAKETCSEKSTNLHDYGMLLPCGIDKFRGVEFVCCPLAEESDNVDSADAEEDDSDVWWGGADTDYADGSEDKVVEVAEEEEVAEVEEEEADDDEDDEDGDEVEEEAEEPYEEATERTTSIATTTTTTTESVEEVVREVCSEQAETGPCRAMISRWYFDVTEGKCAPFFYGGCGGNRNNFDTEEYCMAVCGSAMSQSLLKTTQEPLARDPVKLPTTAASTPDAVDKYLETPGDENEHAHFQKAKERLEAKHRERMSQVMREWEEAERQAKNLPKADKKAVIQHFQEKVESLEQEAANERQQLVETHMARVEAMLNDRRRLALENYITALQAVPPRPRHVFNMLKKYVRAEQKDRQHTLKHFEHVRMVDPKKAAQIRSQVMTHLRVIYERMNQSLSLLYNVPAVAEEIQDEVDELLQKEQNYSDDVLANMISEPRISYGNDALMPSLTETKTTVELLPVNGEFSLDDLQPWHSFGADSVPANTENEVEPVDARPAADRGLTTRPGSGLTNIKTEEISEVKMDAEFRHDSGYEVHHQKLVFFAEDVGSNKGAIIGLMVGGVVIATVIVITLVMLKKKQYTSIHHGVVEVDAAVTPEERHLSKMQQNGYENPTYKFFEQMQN
PROPERTY LABEL: inhibition

Study these solved cases before continuing.
{"columns": ["CHEMICAL STRUCTURE", "PROPERTY LABEL", "VALUE"],
 "data": [
  ["O=c1cc(OCCCn2cc(Cn3nnc4ccccc43)nn2)c2ccccc2o1", "inhibition", "34.3%"],
  ["O=c1ccc2ccc(OCCCn3cc(COn4nnc5ccccc54)nn3)cc2o1", "inhibition", "< 10%"]
]}

Record inhibition for all entries; do not skip any.
1. O=c1ccc2ccc(OCCCCCn3cc(COn4nnc5ccccc54)nn3)cc2o1
2. O=c1ccc2ccc(OCCCCCCn3cc(Cn4nc5ccccc5n4)nn3)cc2o1

Output line:
1. < 10%
2. < 10%

Record inhibition for all entries; do not skip any.
1. O=c1ccc2ccc(OCCCCn3cc(COn4nnc5ccccc54)nn3)cc2o1
2. O=c1ccc2ccc(OCCCCCCn3cc(COn4nnc5ccccc54)nn3)cc2o1
3. O=c1ccc2ccc(OCCCn3cc(Cn4nnc5ccccc54)nn3)cc2o1
4. O=c1ccc2ccc(OCCCn3cc(Cn4nc5ccccc5n4)nn3)cc2o1
5. O=c1cc(OCCCCCn2cc(Cn3nc4ccccc4n3)nn2)c2ccccc2o1
6. O=c1ccc2ccc(OCCn3cc(COn4nnc5ccccc54)nn3)cc2o1
7. O=c1ccc2ccc(OCCCCn3cc(Cn4nc5ccccc5n4)nn3)cc2o1
8. O=c1cc(OCCCCCCn2cc(Cn3nc4ccccc4n3)nn2)c2ccccc2o1

Output line:
["< 10%", "< 10%", "15.9%", "< 10%", "< 10%", "11.4%", "< 10%", "< 10%"]

----------
Entries with their measured IC50, system Acetylcholinesterase (Electrophorus electricus, UniProt O42275):
Give bare numbers, in nM.

{"columns": ["CHEMICAL STRUCTURE", "TARGET DESC", "IC50 [nM]"],
 "data": [
  ["O=c1cc(OCCCCn2cc(COn3nnc4ccccc43)nn2)c2ccccc2o1", "Acetylcholinesterase (Electrophorus electricus, UniProt O42275)", 3230],
  ["O=c1cc(OCCCn2cc(Cn3nnc4ccccc43)nn2)c2ccccc2o1", "Acetylcholinesterase (Electrophorus electricus, UniProt O42275)", 59],
  ["O=c1cc(OCCCCn2cc(Cn3nnc4ccccc43)nn2)c2ccccc2o1", "Acetylcholinesterase (Electrophorus electricus, UniProt O42275)", 234]
]}

Record IC50 for all entries; do not skip any.
1. O=c1cc(OCCCCCCn2cc(Cn3nnc4ccccc43)nn2)c2ccccc2o1
2. O=c1ccc2ccc(OCCCn3cc(Cn4nc5ccccc5n4)nn3)cc2o1

Output line:
5420
1160

----------
Entries with their measured IC50, system Acetylcholinesterase (Electrophorus electricus):
Please format your answer as a value with the unit trailing.

Study these solved cases before continuing.
{"columns": ["CHEMICAL STRUCTURE", "VALUE"],
 "data": [
  ["O=c1ccc2ccc(OCCCn3cc(COn4nnc5ccccc54)nn3)cc2o1", "1980 nM"],
  ["O=c1ccc2ccc(OCCn3cc(COn4nnc5ccccc54)nn3)cc2o1", "2010 nM"],
  ["O=c1cc(OCCCCn2cc(Cn3nc4ccccc4n3)nn2)c2ccccc2o1", "2090 nM"],
  ["O=c1cc(OCCn2cc(Cn3nnc4ccccc43)nn2)c2ccccc2o1", "97 nM"]
]}

As a next step, examine the compound that follows.
According to the records, this compound O=c1ccc2ccc(OCCn3cc(Cn4nc5ccccc5n4)nn3)cc2o1 displays IC50 of 1180 nM
